test: yeast display, Sf9 membrane polyspecificity reagent, FACS + sequencing; frameworks hold sequencing errors

primary.sequence | polyreactivity (PSR sort gate)
QVQLVESGGGLVQAGGSLRLSSAASGSTFYKYAMGWNRQTPGKERELVAPITGNSGSTYYADSVKGRFTISRDNAKNTVYLQMNSLKPEDTAVYYCAAARPRVWAFNYWGQGTQVTVSS | low polyreactivity
QVQLVESGGGLVQAGGSLRLSCAASGSIFEKYAMGWYRQAPGKERELVASISKRGGSTNYADSVKGRFTISRDNAKNTVYLQMNSLKPVDTAVYYCAAPANRWSTRWYYDGYDYWGQGTQVTVSS | high polyreactivity
QVQLVESGGGLVQAGGSLRLSCAASGSIFTLYAMGWYRQAPGKEREFVAGISFSTGRTYYADSVKGRFSISRDNAKNTVYLQMNSLKPEDTAVYYCAAYVSHYWYGVYRDGYWGQGTQVTVSS | low polyreactivity
QVQLVESGGGLVQAGGSLRLSCAASGRTLGKNAMGWYRQAPGKEREFVAAISRSGSRTYYADSVKGRFTISRDNEKYTVYLQMNSLKPEDTAVYYCAADGSGHSQRYDYWGQGTQVTVSS | high polyreactivity
QVQLVESGGGLVQAGGSLRLSCAASGSIFWYYAMGWYRQAPGKERELVAAIRRGGSTTYADSVKGRFTISRDNAKNTVYLQMNSLKPEDTAVYYCAAEPYYWYRGDYWGQGTQVTVSS | high polyreactivity

----------
assay: yeast display, Sf9 membrane polyspecificity reagent, FACS + sequencing; frameworks hold sequencing errors
readout.kind: polyreactivity (PSR sort gate)

primary.sequence | result
QVELVESGGGLVQAGGSLRLSCAASGSTFDPNAMGWYRQAPGKERELVASITSRGGSTYYADSVKGRFTISRDIAKNTVYLQMNSLKPEDTADYYCAAVGGATYSWNGYSWYPWHNYWGQGTQVTVSS | low polyreactivity
QVQLVESGGGLVQAGGSLRLSCAASGRIFVRYAMGWYRQAPGKERELVAAITTTGDSTYADSVKGRFTISRDNAKNTVYLQMNSLKPEDTAVYYCNAAWPESRFLVYHRYDYWGQGTQVTVSS | low polyreactivity
QVQLVESGGGLVQAGGSLRLSCAASVSIFGSNAMRWYRQAPGKERELVAVITNGGRTYYADSVKGRFTISRDNAKNTVFLQMNSLKPEDTAVYYCAASRVYGWYGSYSTYGSWGQGTQVTVSS | high polyreactivity
QVQLVESGAGLVQAGGSLRLSCDASGRTVNIYAMGWYRQAPGKERELVADISYSDGSTDYADSVKGRFTISRDNAKNTVYLQMNSLKPEDTAVYYCAAYYYYYYGFGQRYYSWGQGTQVTVSS | low polyreactivity
QVQLVESGGGLVQAGGSLRLSCAASGSTFGGYAMGWYRQAPGKEREFVAAITKRGGRTYYADSVKGRFTISRDNAKNTVYLQMNSLKPEDTAVYYCATRGINYAEYDYWGQGTQVTVSS | high polyreactivity
QVQLVESGGGLVQAGGSLRLSCAASGRILWGYAMGWYRQAPGKERELVAAITWSTGTTSYADSVKGRFTISRDNAKNTVYLQMNSLKPEDTAVYYCARRQWRTQLVYGSRRDYWGQGTQVTVSS | low polyreactivity
QVQLVESGGGFVQAGGSLRLSCAASGGIFGSYAIGWYRQAPGKERELVADITQSGGRTRNADSVKGRFTSSRDNAKNTVYLQKNSLKPEDTALYYCNAQDVDSGDDYDYWGQGTQVTVSS | low polyreactivity
QVQLVESGGGLVQAGGSLRLSCAASGGTFTFYAMGWYRQATGKERELVATINWSGGSTYYADSVKGRFTISRDNAKNTVYLQMNSLKPEDTAVYYCNAAWPYKSVEYWGQGTQVTVSS | low polyreactivity
QVQLVESGGGLVQAGGSLRLSCAASGRTFQQNAMGWYRQAPGKERELVATIRNGGNTNYADSVKGRFTISRDNAKNTVYLQLNSLKPEDTAVYYSAARVYTHGLWGYNYWGQGTQVTVSS | high polyreactivity
QVQLVESGGGLVQAGGSLRLSCAASGSIFEYYAMGWYRTAPGKERELVAAISSGGPTYYADSVKGRFTISRDNAKNTVYLQMNSLKPEDSAVYYCNADLWYPDYDYWGQGTQVTVSS | low polyreactivity
QGQLVESGGGLLQAGGSLRLSCAASGRTFPYNALGWYRQAPGKERELVAAMSSGTRTDSADAVKGRFTISRDTAKNTVYLQMNSLKPEATAVYYWAADDYHYLWRADGFDYWGQGTQVTVSS | high polyreactivity

Every entry's value here was drawn from the nanobody polyreactivity screen of Harvey et al. (2022).
